- assay_name: Drug uptake in mouse expressing human GCGR at 10 mg/kg, po measured at 60 mins
- Format: ADME, organism-based
- Design: dose 10 mg/kg, route oral
- test_context: in vivo, read-out: Drug uptake

molecule: COc1ccc2cc(-c3cc(-c4cc(Cl)cc(Cl)c4)nn3[C@@H](C)c3ccc(C(=O)NCCC(=O)O)cc3)ccc2c1 [MK-0893]
concentration at 1 h: 1150 nM

###

- test_target: Cytochrome P450 1A2 (Homo sapiens)
- Sequence (P05177 whole entry): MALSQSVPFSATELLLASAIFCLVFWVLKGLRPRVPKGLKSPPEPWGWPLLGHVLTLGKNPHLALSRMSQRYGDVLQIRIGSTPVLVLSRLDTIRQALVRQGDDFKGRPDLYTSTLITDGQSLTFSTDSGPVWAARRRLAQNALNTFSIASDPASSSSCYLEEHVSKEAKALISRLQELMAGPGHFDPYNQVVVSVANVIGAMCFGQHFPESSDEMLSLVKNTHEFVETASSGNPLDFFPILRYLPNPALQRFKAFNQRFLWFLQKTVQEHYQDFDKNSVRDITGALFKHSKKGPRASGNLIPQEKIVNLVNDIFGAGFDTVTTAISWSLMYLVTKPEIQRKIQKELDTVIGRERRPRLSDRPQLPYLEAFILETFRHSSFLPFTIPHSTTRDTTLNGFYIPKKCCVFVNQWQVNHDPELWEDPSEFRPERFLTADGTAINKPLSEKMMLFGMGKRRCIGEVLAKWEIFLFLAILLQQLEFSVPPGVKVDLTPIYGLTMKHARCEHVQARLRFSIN
pIC50: −log10 of the molar value.

chemical_string: COc1ccc2cc(-c3cc(-c4cc(Cl)cc(Cl)c4)nn3[C@@H](C)c3ccc(C(=O)NCCC(=O)O)cc3)ccc2c1
pIC50: 4.04
